TARGET OR SYSTEM: Protein cereblon/von Hippel-Lindau disease tumor suppressor (Homo sapiens, UniProt P40337+Q96SW2)
Sequence (P40337 whole entry, looked up): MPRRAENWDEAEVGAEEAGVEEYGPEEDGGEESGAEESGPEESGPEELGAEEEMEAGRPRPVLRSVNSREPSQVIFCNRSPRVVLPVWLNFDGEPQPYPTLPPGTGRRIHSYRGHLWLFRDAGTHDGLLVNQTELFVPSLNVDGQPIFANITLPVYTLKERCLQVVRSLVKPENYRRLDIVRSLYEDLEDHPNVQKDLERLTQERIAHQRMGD
Sequence (Q96SW2 whole entry, looked up): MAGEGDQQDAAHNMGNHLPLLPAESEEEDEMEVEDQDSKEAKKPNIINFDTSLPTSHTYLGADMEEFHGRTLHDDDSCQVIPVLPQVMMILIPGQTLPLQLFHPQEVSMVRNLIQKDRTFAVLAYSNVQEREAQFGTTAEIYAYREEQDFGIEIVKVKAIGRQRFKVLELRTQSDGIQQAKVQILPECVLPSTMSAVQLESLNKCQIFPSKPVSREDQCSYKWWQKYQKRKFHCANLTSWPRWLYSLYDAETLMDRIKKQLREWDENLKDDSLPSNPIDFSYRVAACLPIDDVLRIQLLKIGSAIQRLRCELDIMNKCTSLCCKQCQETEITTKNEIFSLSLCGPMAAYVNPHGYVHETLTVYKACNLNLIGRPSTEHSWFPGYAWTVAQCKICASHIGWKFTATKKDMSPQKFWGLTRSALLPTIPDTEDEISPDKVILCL
METHOD SUMMARY: Protac activity at VHL/CRBN in human HeLa cells assessed as CRBN protein abundance at 1 uM after 4 hrs by Western blot analysis relative to DMSO
Assay type: cell-based
METRIC: Activity (%)
Respond numerically; units are % and should not be typed.

// known answers, use as guide
MOLECULE	MEASURED NUMBER
Cc1ncsc1-c1ccc(CNC(=O)[C@@H]2C[C@@H](O)CN2C(=O)[C@@H](NC(=O)C2(F)CC2)C(C)(C)SCCOCCOCCOCCOCCOCC(=O)NCCNc2cccc3c2C(=O)N(C2CCC(=O)NC2=O)C3=O)cc1 (stereo not given in full)	68
Cc1ncsc1-c1ccc(CNC(=O)[C@@H]2C[C@@H](O)CN2C(=O)[C@@H](NC(=O)C2(F)CC2)C(C)(C)C)c(OCCOCCOCCOCC(=O)NCCNc2cccc3c2C(=O)N(C2CCC(=O)NC2=O)C3=O)c1 (stereo not given in full)	71
Cc1ncsc1-c1ccc(CNC(=O)[C@@H]2C[C@@H](O)CN2C(=O)[C@@H](NC(=O)COCCOCCOCCOCC(=O)NCCNc2cccc3c2C(=O)N(C2CCC(=O)NC2=O)C3=O)C(C)(C)C)cc1 (stereo not given in full)	94
Cc1ncsc1-c1ccc(CNC(=O)[C@@H]2C[C@@H](O)CN2C(=O)[C@@H](NC(=O)COCCOCCOCC(=O)NCCNc2cccc3c2C(=O)N(C2CCC(=O)NC2=O)C3=O)C(C)(C)C)cc1 (stereo not given in full)	91
Cc1ncsc1-c1ccc(CNC(=O)[C@@H]2C[C@@H](O)CN2C(=O)[C@@H](NC(=O)COCCCCCCOCC(=O)NCCNc2cccc3c2C(=O)N(C2CCC(=O)NC2=O)C3=O)C(C)(C)C)cc1 (stereo not given in full)	65
Cc1ncsc1-c1ccc(CNC(=O)[C@@H]2C[C@@H](O)CN2C(=O)[C@@H](NC(=O)COCCOCCOCCOCCOCCOCC(=O)N[C@H](C(=O)N2C[C@H](O)C[C@H]2C(=O)NCc2ccc(-c3scnc3C)cc2)C(C)(C)C)C(C)C)cc1	103
Cc1ncsc1-c1ccc(CNC(=O)[C@@H]2C[C@@H](O)CN2C(=O)[C@@H](NC(=O)COCCOCCOCCOCCOCC(=O)NCCNc2cccc3c2C(=O)N(C2CCC(=O)NC2=O)C3=O)C(C)(C)C)cc1 (stereo not given in full)	94
Cc1ncsc1-c1ccc(CNC(=O)[C@@H]2C[C@@H](O)CN2C(=O)[C@@H](NC(=O)COCCOCCOCCOCCOCCOCC(=O)NCCNc2cccc3c2C(=O)N(C2CCC(=O)NC2=O)C3=O)C(C)(C)C)cc1 (stereo not given in full)	86
Cc1ncsc1-c1ccc(CNC(=O)[C@@H]2C[C@@H](O)CN2C(=O)[C@@H](NC(=O)COCCCCCOCCOCCCCCOCC(=O)NCCNc2cccc3c2C(=O)N(C2CCC(=O)NC2=O)C3=O)C(C)(C)C)cc1 (stereo not given in full)	19

**Query** I'd like to know its Activity. The molecule in question is Cc1ncsc1-c1ccc(CNC(=O)[C@@H]2C[C@@H](O)CN2C(=O)[C@@H](NC(=O)C2(F)CC2)C(C)(C)SCCOCCOCCOCC(=O)NCCNc2cccc3c2C(=O)N(C2CCC(=O)NC2=O)C3=O)cc1 (stereo not given in full)
**Result** 71
